Biological target: PltM (Pseudomonas protegens)
Experiment: In vitro PltM halogenation assay with a single halide salt, substrate profile (Assay 1a-1d), LC-MS
Type: biochemical
Settings: NaI as halide source (Assay 1d)
MEASURE_NAME: iodination by PltM (products identified by LC-MS)

Oc1ccc(C=Cc2cc(O)cc(O)c2)cc1	mono-iodinated
CC(Cc1ccc(O)cc1)NCC(O)c1cc(O)cc(O)c1 (stereo not shown) [Compound 22, fenoterol, reference compound]	mono-iodinated

* * *

Molecular target: PltM (Pseudomonas protegens)
Assay: Optimized in vitro PltM halogenation assay (PltM, SsuE, GDH), overnight overall yield by HPLC
Format: biochemical
Conditions: optimized chlorination reaction, overnight; sum of all chlorinated products; second of two independent reactions
Procedure: To increase production of halogenated molecules and decrease the amount of NADPH required, the above in vitro assay was optimized by using an additional enzyme, glucose dehydrogenase (GDH). […] The overall yield of halogenation products was determined for reactions run overnight for several substrates (Table 8). […] The halogenation reaction products were analyzed by HPLC or LC-MS by injecting 10 μL of each sample. […]
MEASURE_NAME: % overall conversion (trial 2) (%)
Give your result in % as a bare value.

Cc1cc(O)cc(O)c1	96
CC(=O)c1c(O)cc(O)cc1O	7

With those in mind, consider the next molecule.
Item Oc1ccc(C=Cc2cc(O)cc(O)c2)cc1 ; assay system PltM (Pseudomonas protegens); % overall conversion (trial 2) reported as 20

* * *

Molecular target: PltM (Pseudomonas protegens)
Assay: Optimized in vitro PltM halogenation assay (PltM, SsuE, GDH), overnight overall yield by HPLC
Type: biochemical
Details: optimized chlorination reaction, overnight; sum of all chlorinated products; first of two independent reactions
% overall conversion (trial 1) overview

Sample answers from the record:
Oc1ccc(C=Cc2cc(O)cc(O)c2)cc1 [Compound 23, resveratrol]	24%
Nc1cccc(N)c1 [Compound 18]	100, 100%
Cc1cc(O)cc(O)c1 [Compound 9]	97%
Nc1cccc(O)c1 [Compound 16]	100, 100%
CC(=O)c1c(O)cc(O)cc1O [Compound 15]	34%

get_value(item= OCc1cc(O)cc(O)c1 [Compound 11] , readout=% overall conversion (trial 1)) returns 100, 100%

get_value(item= Oc1cccc(O)c1 [Compound 3] , readout=% overall conversion (trial 1)) returns 100, 100%

* * *

Molecular target: PltM (Pseudomonas protegens, UniProt Q4KCZ3)
Sequence (Q4KCZ3 entry or part of it): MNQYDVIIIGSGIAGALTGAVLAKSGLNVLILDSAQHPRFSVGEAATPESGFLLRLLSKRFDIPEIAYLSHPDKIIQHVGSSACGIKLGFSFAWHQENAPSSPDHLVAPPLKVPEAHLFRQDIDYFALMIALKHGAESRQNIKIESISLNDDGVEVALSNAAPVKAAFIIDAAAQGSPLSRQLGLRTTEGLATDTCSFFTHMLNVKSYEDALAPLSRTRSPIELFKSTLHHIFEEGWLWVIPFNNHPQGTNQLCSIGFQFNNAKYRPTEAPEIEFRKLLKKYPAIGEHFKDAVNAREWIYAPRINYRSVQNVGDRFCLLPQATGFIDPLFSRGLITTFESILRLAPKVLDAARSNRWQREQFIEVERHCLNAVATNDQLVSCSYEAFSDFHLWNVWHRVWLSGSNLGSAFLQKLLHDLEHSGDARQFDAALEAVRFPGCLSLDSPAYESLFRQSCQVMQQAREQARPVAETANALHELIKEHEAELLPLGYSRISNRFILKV
Assay: Optimized in vitro PltM halogenation assay (PltM, SsuE, GDH), overnight overall yield by HPLC
Assay type: biochemical
Details: optimized chlorination reaction, overnight; sum of all chlorinated products; second of two independent reactions
MEASURE_NAME: % overall conversion (trial 2)

Oc1cccc(O)c1 [Compound 3]	100, 100%
Nc1cccc(N)c1 [Compound 18]	100, 100%
Nc1cccc(O)c1 [Compound 16]	100, 100%

With those in mind, consider the next compound.
get_value(item= OCc1cc(O)cc(O)c1 [Compound 11] , readout=% overall conversion (trial 2)) returns 100, 100%
